System tested: PqsR (Pseudomonas aeruginosa)
Sequence (Q9I4X0 whole entry): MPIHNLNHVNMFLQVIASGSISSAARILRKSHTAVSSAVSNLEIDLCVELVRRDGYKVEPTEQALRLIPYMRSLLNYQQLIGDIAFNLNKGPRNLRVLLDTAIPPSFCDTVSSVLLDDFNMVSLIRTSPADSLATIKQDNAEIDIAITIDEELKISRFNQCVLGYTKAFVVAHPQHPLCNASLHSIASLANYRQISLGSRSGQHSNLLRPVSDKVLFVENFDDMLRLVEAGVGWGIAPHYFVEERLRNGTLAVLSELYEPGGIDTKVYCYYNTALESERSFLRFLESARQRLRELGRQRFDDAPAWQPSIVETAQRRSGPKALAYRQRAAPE
Experimental details: E. coli based β-galactosidase reporter gene assay (PqsR inverse agonistic activity)
Format: cell-based
Set-up: expressed in transfected cells; host or cells: Escherichia coli DH5α
pIC50: −log10 of the molar value.
Assay readout: pIC50

Solved cases (4 shown):
CC(C)Oc1ccc(-n2cc(CNc3ccnc(C(F)(F)F)c3)nn2)cc1 | ≥ 7.30
CC(C)Oc1ccc(-n2cc(CNc3ccnc(C(F)(F)F)c3)nn2)cc1Cl | ≥ 7.30
FC(F)(F)c1cc(NCc2nc3cc(Oc4ccccc4)ccc3[nH]2)ccn1 | ≥ 7.30
FC(F)(F)c1cc(NCc2cnc(-c3ccc(Cl)cc3)s2)ccn1 | 6.60 to 7.29

Request: Dear colleague, I am looking for the recorded pIC50 of the following compound: `FC(F)(F)c1cc(NCc2ncc(-c3ccc(Cl)nc3)cn2)ccn1`
Response: 6.00 to 6.60
